Reported pEC50 is given for each of the following compounds.
Target Entity: Free fatty acid receptor 1 (Homo sapiens)
Sequence (O14842 whole entry): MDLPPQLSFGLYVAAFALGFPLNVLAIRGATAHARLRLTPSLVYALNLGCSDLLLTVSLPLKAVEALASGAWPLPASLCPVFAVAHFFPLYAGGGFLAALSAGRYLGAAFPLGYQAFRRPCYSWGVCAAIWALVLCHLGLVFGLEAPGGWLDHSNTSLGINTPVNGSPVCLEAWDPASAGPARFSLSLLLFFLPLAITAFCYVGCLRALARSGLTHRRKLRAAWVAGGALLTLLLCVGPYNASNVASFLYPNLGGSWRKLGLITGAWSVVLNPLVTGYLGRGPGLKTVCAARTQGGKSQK
Measurement Description: GPR40 FDSS Assay
Measurement Parameters: 37 °C
Method: Human embryonic kidney (HEK293) cells expressing human GPR40 receptors were grown in Dulbecco modified Eagles medium (DMEM)/F12 media supplemented with 10% fetal FBS and glutamine. Changes in ligand-induced calcium-dependent intracellular fluorescence were measured with a fluorometric plate reader (FDSS; Hamamatsu Corp., Bridgewater, NJ).
Schema: pEC50 number; meaning minus log10 of the concentration expressed in molar units.

# count of solved cases: 6
1. C/C=C/COc1ccc(C(CC(=O)O)c2ccccc2)cc1 (stereo not given)    5.57
2. CCCOc1ccc(C(CC(=O)O)c2ccccc2)cc1 (stereo not given)    5.32
3. CCCCOc1ccc(C(CC(=O)O)c2ccccc2)cc1 (stereo not given)    5.92
4. CCC(C)COc1ccc(C(CC(=O)O)c2ccccc2)cc1 (stereo not given)    6.52
5. CCCCOc1ccc(C(CC(=O)O)c2cccs2)cc1 (stereo not given)    5.89
6. CCCCCOc1ccc(C(CC(=O)O)c2ccccc2)cc1 (stereo not given)    5.53

Then this compound:
Look up pEC50: CC(C)CCOc1ccc(C(CC(=O)O)c2ccccc2)cc1 (stereo not given)
5.73
